Listing: IC50 of selected molecules
# Test system: N-his8-TEV-hPARG (389-976) (Homo sapiens, UniProt Q86W56)
# Construct: N-his8-TEV-hPARG (389-976); His8 (N); TEV protease cleavage site (N); made in house; host or cells: E. coli BL21(DE3)
# Sequence (Q86W56 389-976): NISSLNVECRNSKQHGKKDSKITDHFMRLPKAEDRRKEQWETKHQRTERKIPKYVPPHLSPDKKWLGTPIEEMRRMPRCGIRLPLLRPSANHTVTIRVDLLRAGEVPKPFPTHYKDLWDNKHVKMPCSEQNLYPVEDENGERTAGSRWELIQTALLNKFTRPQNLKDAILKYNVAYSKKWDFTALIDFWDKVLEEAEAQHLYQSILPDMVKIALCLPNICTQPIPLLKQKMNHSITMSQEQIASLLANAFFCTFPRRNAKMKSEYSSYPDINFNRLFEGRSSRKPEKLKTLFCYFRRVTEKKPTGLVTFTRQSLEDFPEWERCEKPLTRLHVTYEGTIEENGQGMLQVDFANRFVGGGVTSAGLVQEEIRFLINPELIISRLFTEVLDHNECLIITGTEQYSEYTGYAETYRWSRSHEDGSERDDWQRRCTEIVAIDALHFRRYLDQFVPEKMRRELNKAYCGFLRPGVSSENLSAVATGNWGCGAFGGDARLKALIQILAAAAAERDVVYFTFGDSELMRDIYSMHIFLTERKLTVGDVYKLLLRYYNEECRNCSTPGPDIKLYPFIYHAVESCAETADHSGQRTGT
# Method summary: PARG Biochemical Enzymatic Assay (PARG inhibition HTRF assay)
# Condition label: 62.5 pM PARG, 5 nM Biotin-Parylated PARP1 substrate, 60 minutes preincubation, 10 minutes reaction at 23 °C
Measured metric: IC50

>>> df
                                    molecule  readout_value
 0  CC(=O)N1CCN(c2cc(S(=O)(=O)NC3(C)CC3)cc3c2cnn3-c2nc3c(s2)C(C)(O)COC3)CC1 (stereo not drawn)       > 500 nM
 1  Cc1nnc(N2CCN(c3cc(S(=O)(=O)NC4(C#N)CC4)cc4c(-c5nnc(C(F)F)s5)cnn34)CC2)o1       < 100 nM
 2  O=S(=O)(NC1(C(F)(F)F)CC1)c1cc(N2CCC3(CC2)COC3)n2ncc(-c3nnc(C(F)F)s3)c2c1  100 to 500 nM
 3  Cc1nnc(-c2cnn3c(N4CCC5(CC4)COC5)cc(S(=O)(=O)NC4(C)CC4)cc23)o1  100 to 500 nM
 4  CC1(NS(=O)(=O)c2cc(-n3cc(C4(O)CCC4)cn3)c3cnn(-c4nnc(C5(O)CCC5)s4)c3c2)CC1  100 to 500 nM
 5  CCCS(=O)(=O)N1CCN(c2cc(S(=O)(=O)NC3(C#N)CC3)cc3c(-c4nnc(C(F)F)s4)cnn23)CC1       < 100 nM
 6  CC1(NS(=O)(=O)c2cc(N3CCC4(CC3)COC4)n3ncc(-c4nc(C(F)F)ns4)c3c2)CC1       < 100 nM
 7  Cn1ccnc1N1CCN(c2cc(S(=O)(=O)NC3(C#N)CC3)cc3c(-c4nnc(C(F)F)s4)cnn23)CC1       < 100 nM
 8  O=S(=O)(NC1(C(F)F)CC1)c1cc(N2CCC3(CC2)COC3)n2cnc(-c3nnc(C(F)F)s3)c2c1       < 100 nM
 9  N#CC1(NS(=O)(=O)c2cc(N3CCC4(CC3)COC4)n3ncc(-c4nnc(C(F)F)s4)c3c2)CC1       < 100 nM
10  CC1(NS(=O)(=O)c2cc(N3CCC4(CC3)COC4)n3ncc(-c4nc5ncccc5s4)c3c2)CC1       < 100 nM
11  O=C(N1CCN(c2cc(S(=O)(=O)NC34CC(C3)C4)cc3c2cnn3-c2nnc(C(F)F)s2)CC1)N1CC[C@H](O)C1       > 500 nM
12  CC1(NS(=O)(=O)c2cc(N3CCC4(CC3)COC4)n3ncc(-c4nnc(C(F)F)s4)c3c2)CC1       < 100 nM
13  N#CC1(c2nnc(-n3ncc4c(N5CCC6(CC5)COC6)cc(S(=O)(=O)NC5(C(F)F)CC5)cc43)s2)CC1       < 100 nM
14  CC(=O)N1CCN(c2cc(S(=O)(=O)NC3(C)CC3)cc3c2cnn3-c2nc3c(s2)C(=O)COC3)CC1  100 to 500 nM
